- Test system: weeds
- protocol notes: Glasshouse weed control, HST inhibitors alone and with A22, post-emergence
- Type: in vivo
- experimental setup: 336 h, SIDSP, 14 DAT, 250 g/ha alone, single replicate, read-out: % control score, Obs
measured property: pest or weed control at 250 g/ha (%)
Respond with the bare value in %.

Q: State the measured pest or weed control at 250 g/ha (weeds) of CC1=NN(C)C(=O)C(c2c(C)cc(C)cc2C)C1=O (centres unmarked)
Result: 20

Q: State the measured pest or weed control at 250 g/ha (weeds) of O=c1c(-c2c(Cl)ccc(Cl)c2Cl)c(O)c2nccnc2n1CC(F)F
Result: 50

Q: State the measured pest or weed control at 250 g/ha (weeds) of Cn1c(=O)c(-c2c(Cl)cccc2C(F)(F)F)c(O)c2nccnc21
Result: 50

Q: State the measured pest or weed control at 250 g/ha (weeds) of O=c1c(-c2cc(C(F)(F)F)ccc2Cl)c(O)c2nccnc2n1CC(F)F
Result: 20

Q: State the measured pest or weed control at 250 g/ha (weeds) of O=c1c(-c2c(F)ccc(Cl)c2Cl)c(O)c2nccnc2n1CC(F)F
Result: 40

Q: State the measured pest or weed control at 250 g/ha (weeds) of O=c1c(-c2c(F)ccc(Br)c2Cl)c(O)c2cccnc2n1CC(F)F
Result: 15

Q: State the measured pest or weed control at 250 g/ha (weeds) of O=c1c(-c2c(F)ccc(F)c2Cl)c(O)c2nccnc2n1CC(F)(F)F
Result: 50

Q: State the measured pest or weed control at 250 g/ha (weeds) of O=c1c(-c2c(F)ccc(Br)c2Cl)c(O)c2nccnc2n1CC(F)F
Result: 50

Q: State the measured pest or weed control at 250 g/ha (weeds) of O=c1c(-c2cc(Cl)ccc2C(F)(F)F)c(O)c2nccnc2n1CC(F)F
Result: 50

Q: State the measured pest or weed control at 250 g/ha (weeds) of O=c1c(-c2c(Cl)cccc2C(F)(F)F)c(O)c2nccnc2n1CC(F)F
Result: 55

Q: State the measured pest or weed control at 250 g/ha (weeds) of O=S1(=O)C(c2ccc(Br)cc2C(F)(F)F)=C(O)c2nccnc2N1CC(F)F
Result: 10

----------
- assay system: Chlamydomonas HST (Chlamydomonas reinhardtii)
- Construct: GST (N); made in house; host or cells: E. coli (BL21A1 / BL21DE3), membrane fraction
- Sequence (A1JHN0 51-370): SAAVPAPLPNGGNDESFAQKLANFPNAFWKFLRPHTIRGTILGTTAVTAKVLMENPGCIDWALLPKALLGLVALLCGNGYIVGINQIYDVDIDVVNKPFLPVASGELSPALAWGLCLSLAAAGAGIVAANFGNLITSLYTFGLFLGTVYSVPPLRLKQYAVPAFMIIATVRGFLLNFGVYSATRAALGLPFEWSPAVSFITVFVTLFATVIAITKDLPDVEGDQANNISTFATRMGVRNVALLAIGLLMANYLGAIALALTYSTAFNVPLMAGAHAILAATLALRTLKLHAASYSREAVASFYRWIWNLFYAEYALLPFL
- protocol notes: HST assay (TLC, MFBQ formed), recombinant Chlamydomonas HST in E. coli membranes
- Format: biochemical
- experimental setup: 25 ppm; TLC, estimated amount of MFBQ formed, relative to controls; read-out: Chlamydomonas. HST % I at 25 ppm
So I've got a bunch of compounds here, and I need their inhibition at 25 ppm values.
State the value, then name its unit.

Q: Annotate the compound O=c1c(-c2c(Cl)ccc(Cl)c2Cl)c(O)c2nccnc2n1CC(F)F [Compound 2.14] with its measured inhibition at 25 ppm.
Result: 85%

Q: Annotate the compound COc1nc(C)nc(NC(=O)NS(=O)(=O)c2ccccc2Cl)n1 [Chlorsulfuron, reference compound] with its measured inhibition at 25 ppm.
Result: 0%

Q: Annotate the compound Oc1c(Cl)c(F)nc(F)c1Cl [Compound 1.1, haloxydine] with its measured inhibition at 25 ppm.
Result: 80%

Q: Annotate the compound Oc1c(Br)c(F)nc(F)c1Br [Compound 1.4] with its measured inhibition at 25 ppm.
Result: 65%

Q: Annotate the compound Cc1cc(C)c(-c2c(O)c3nccnc3n(CC(F)F)c2=O)c(C)c1 [Compound 2.11] with its measured inhibition at 25 ppm.
Result: 80%

Q: Annotate the compound Oc1c(Cl)c(Cl)nc(Cl)c1Cl [Compound 1.2] with its measured inhibition at 25 ppm.
Result: 70%

Q: Annotate the compound Oc1c(F)c(F)nc(F)c1Br [Compound 1.3] with its measured inhibition at 25 ppm.
Result: 55%

Q: Annotate the compound O=c1c(-c2cc(C(F)(F)F)ccc2Cl)c(O)c2nccnc2n1CC(F)F [Compound 2.9] with its measured inhibition at 25 ppm.
Result: 90%

Q: Annotate the compound O=c1c(-c2c(F)ccc(Br)c2Cl)c(O)c2nccnc2n1CC(F)F [Compound 2.8] with its measured inhibition at 25 ppm.
Result: 85%
